// GI50 lookup, one value per entry
Tested on: SNB-19 CNS
Test: NCI tumour cell line growth inhibition, 48 h
Where a SMILES comes first, the peptide text is derived from it. [ ]: non-standard residue; d: D form. The star is where a group is joined. Dolaproine = CO[C@@H]([C@@H]1CCCN1)[C@@H](C)C(=O)O; Dil = CC[C@H](C)[C@H](NC)[C@@H](CC(=O)O)OC; X2 = C[C@@H](N*)[C@@H](O)c1ccccc1; NMeV = CN[C@H](C(=O)O)C(C)C

## Input // lookup GI50 for CSc1nc(-c2cc3ccccc3o2)cc(-c2ccc(Cl)cc2)c1C#N
## Output 19.7 µM

## Input // lookup GI50 for CC[C@H](C)[C@@H]([C@@H](CC(=O)N1CCC[C@H]1[C@H](OC)[C@@H](C)C(=O)N[C@H](C)[C@@H](O)c1ccccc1)OC)N(C)C(=O)[C@@H](NC(=O)[C@@H](NC)C(C)C)C(C)C (H-[NMeV]V[Dil][Dolaproine]-X2)
## Output < 0.005 µM

## Input // lookup GI50 for Clc1ccc(C(Cn2ccnc2)OCc2ccsc2Cl)c(Cl)c1 (stereo not given)
## Output 5.41 µM

## Input // lookup GI50 for COC1=C(OC)C(=O)C(CCCCCCCCCC[P+](c2ccccc2)(c2ccccc2)c2ccccc2)=C(C)C1=O
## Output 0.125 µM

## Input // lookup GI50 for C[CH2][Sn]([CH2]C)([O]C(=O)c1ccccc1F)[O]C(=O)c1ccccc1F
## Output 36.6 µM

## Input // lookup GI50 for COc1cccc2c1C(=O)c1c(O)c3c(c(O)c1C2=O)C[C@@](O)(C(=O)CO)C[C@@H]3OC1CC2C(OCN3CN2COC2C(C)OC(O[C@H]4C[C@](O)(C(=O)CO)Cc5c(O)c6c(c(O)c54)C(=O)c4c(OC)cccc4C6=O)CC23)C(C)O1 (stereo not given in full)
## Output 0.0152 µM

## Input // lookup GI50 for COc1ccc2c(c1)/C(=N/OC(C)=O)c1c-2c(Nc2cccc(/C(C)=N/OC(C)=O)c2)nc2ccccc12
## Output 55.4 µM

## Input // lookup GI50 for O=C(C[n+]1cccc2cc(Cl)ccc21)c1ccc2c(c1)CCCC2
## Output 1.12 µM

## Input // lookup GI50 for O=C(c1ccc(Cl)c(Cl)c1)N1CCN(C(=O)c2ccc(Cl)c(Cl)c2)C1=S
## Output 21.4 µM

## Input // lookup GI50 for N#CC1(Nc2ccc(Br)cc2)CCCC1
## Output > 100 µM

* * *

// log10 TGI lookup, one value per entry
Tested on: COLO 205 colon
Assay: NCI tumour cell line growth inhibition, 48 h
# log10 transformed; quantity=TGI; unit=µM

Please review the following examples before continuing.
sample_smiles=COc1cc(C(c2c(O)c3ccccc3oc2=O)c2c(O)c3ccccc3oc2=O)ccc1O observed_value=1.50
sample_smiles=NC(N)=NN=C(c1ccccc1)c1ccccc1 observed_value=0.62
sample_smiles=C[C@H](C(=O)C12CC3CC(CC(C3)C1)C2)[C@H](O)c1ccccc1 observed_value=1.45
sample_smiles=CC(C)(CNC(=O)/C(Cl)=C(/Cl)C(=O)O)CNC(=O)/C(Cl)=C(/Cl)C(=O)O observed_value=1.55

Next:
## Input Requested read-out log10 TGI, target or system COLO 205 colon, entry COC1=C(OC)C(=O)C(CCCCCCCCCC[P+](c2ccccc2)(c2ccccc2)c2ccccc2)=C(C)C1=O
## Output -0.55
